# target: full length Stat3, P40763
# Sequence (P40763 whole entry): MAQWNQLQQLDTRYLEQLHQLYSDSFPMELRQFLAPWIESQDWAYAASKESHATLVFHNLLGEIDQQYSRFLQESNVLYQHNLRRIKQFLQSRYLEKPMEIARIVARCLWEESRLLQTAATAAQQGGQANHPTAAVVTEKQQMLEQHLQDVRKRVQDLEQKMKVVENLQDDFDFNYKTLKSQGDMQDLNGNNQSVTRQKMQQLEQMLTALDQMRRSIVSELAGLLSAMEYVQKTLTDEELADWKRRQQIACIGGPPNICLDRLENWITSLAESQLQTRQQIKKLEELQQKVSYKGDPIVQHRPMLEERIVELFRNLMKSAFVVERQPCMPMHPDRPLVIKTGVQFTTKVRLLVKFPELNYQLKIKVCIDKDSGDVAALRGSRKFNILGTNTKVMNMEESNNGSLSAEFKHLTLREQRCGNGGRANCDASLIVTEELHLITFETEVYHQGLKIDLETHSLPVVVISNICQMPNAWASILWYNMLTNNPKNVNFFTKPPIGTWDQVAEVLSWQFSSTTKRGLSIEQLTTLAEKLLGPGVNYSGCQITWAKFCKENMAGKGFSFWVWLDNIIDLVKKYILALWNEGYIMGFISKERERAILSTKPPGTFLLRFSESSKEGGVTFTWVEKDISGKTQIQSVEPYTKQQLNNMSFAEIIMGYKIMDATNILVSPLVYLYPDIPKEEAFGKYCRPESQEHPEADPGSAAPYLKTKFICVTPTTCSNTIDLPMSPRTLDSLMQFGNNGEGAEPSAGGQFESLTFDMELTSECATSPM
# test_description: fluorescence polarization, full length Stat3 titrated into the FP probe
[ ]: non-standard residue; d: D form. pY = N[C@@H](Cc1ccc(OP(=O)(O)O)cc1)C(=O)O
metric: Kd

> print(dat)
                                     binder  recorded.value
1  {fluorescein‑5‑carboxyl}-A[pY]LPQTV-NH2 [fluorescein-5-carboxyl-Ala-pTyr-Leu-Pro-Gln-Thr-Val-NH2]           50 nM
